FYI, the data here is from patent US7906516B2.

metric name: melting point (°C)

compound: O=C(NC1CCC(N2CCOCC2=O)CC1)[C@H]1C[C@@H](O)CN1C(=O)Nc1ccc(Cl)cc1 (stereo partly shown)
reading unit: °C
melting point: 245
--
compound: CO[C@@H]1C[C@H](C(=O)Nc2ccc(N3CCOCC3=O)cc2)N(C(=O)Nc2ccc(Cl)cc2)C1
reading unit: °C
melting point: 133
--
compound: CCO[C@@H]1C[C@H](C(=O)Nc2ccc(N3CCOCC3=O)c(C)c2)N(C(=O)Nc2ccc(Cl)cc2)C1
reading unit: °C
melting point: 117
--
compound: O=C(Nc1ccc(N2CCOCC2=O)cc1)[C@H]1C=CCN1C(=O)Nc1ccc(Cl)cc1
reading unit: °C
melting point: 245
--
compound: O=C(Nc1ccc(N2CCOCC2=O)cc1)[C@H]1CCCN1C(=O)c1ccc(Cl)s1 [AB1]
reading unit: °C
melting point: 195
--
compound: O=C(Nc1ccc(N2CCOCC2=O)cc1)[C@H]1C[C@@H](O)CN1C(=O)Cc1ccc(Cl)cc1
reading unit: °C
melting point: 141

[I] CC(C)C(=O)O[C@@H]1C[C@H](C(=O)Nc2ccc(N3CCOCC3=O)cc2)N(C(=O)Nc2ccc(Cl)cc2)C1
[II] O=C(Nc1ccc(N2CCOCC2=O)cc1)[C@H]1CCCN1C(=O)Nc1ccc(Cl)cc1 [Compound A1]
Challenge: melting point comparison. Which is larger, I or II ? Provide the label of your selected option as the answer.
Response given: II
(II: 227.6 °C, I: 129 °C)

* * *

target: TF/FVIIa (Homo sapiens, UniProt P08709); test: TF/factor VIIa inhibition (TF/FVIIa-IC50)
Sequence (P08709 213-466 limits assumed): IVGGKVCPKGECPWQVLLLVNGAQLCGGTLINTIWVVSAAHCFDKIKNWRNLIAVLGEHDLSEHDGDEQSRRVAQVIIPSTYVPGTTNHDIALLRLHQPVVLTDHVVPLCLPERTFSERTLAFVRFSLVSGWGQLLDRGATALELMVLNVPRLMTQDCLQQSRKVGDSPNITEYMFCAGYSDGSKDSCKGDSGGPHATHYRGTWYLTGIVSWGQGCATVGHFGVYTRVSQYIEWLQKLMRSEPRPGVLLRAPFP
Sequence (P08709 61-212 partner limits assumed): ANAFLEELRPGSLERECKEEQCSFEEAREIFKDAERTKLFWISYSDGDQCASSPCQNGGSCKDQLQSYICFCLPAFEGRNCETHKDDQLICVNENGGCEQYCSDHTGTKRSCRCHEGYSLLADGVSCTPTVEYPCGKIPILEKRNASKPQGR
Sequence (P13726 33-295 partner): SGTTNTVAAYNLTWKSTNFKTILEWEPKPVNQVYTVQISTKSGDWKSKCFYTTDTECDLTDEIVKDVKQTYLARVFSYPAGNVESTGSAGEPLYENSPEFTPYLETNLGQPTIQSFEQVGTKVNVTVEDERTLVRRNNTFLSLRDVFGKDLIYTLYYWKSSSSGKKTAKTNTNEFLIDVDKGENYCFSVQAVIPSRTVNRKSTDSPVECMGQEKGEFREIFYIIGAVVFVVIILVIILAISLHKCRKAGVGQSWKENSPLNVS
pIC50: −log10 of the molar value.
metric name: pIC50

[a] O=C(Nc1ccc(N2CCOCC2=O)cc1)[C@H]1CCCN1C(=O)Nc1ccc(Cl)cc1
[b] O=C(Nc1ccc(N2CCOCC2=O)cc1)[C@H]1CCCN1C(=O)c1ccc(Cl)s1
Challenge: pIC50 comparison. Which is larger, a or b ? Provide the label of your selected option as the answer.
Response given: a
(a: 7.64, b: 5.41)
